read-out: Caspase-3 (Homo sapiens); experiment: LTEA_HepaRG_CASP3: Life Technologies and Expression Analysis (LTEA) Assay for cysteine-aspartic acid protease (CASP3) using HepaRG (AID 2283477); conditions: mRNA level, 48 h; actives raise or lower the signal
Calls of active or inactive are those of the source. The calls were made as follows: active = hit-call score of the fitted dose curve at least 0.9, where 1 is the maximum; inactive = score below 0.9.
measuredAttribute: outcome

Some compounds with known outcome results, for comparison:
INPUT: Would you kindly share the measured outcome for CC(=O)Oc1ccccc1C(=O)O ?
OUTPUT: inactive

INPUT: Would you kindly share the measured outcome for CNCc1cc(F)ccc1Oc1ccc(Cl)c(Cl)c1 ?
OUTPUT: inactive

INPUT: Would you kindly share the measured outcome for O=C(O)Cc1ccccc1Nc1c(Cl)cccc1Cl ?
OUTPUT: inactive

INPUT: Would you kindly share the measured outcome for Cc1cccc(C)c1O ?
OUTPUT: inactive

INPUT: Would you kindly share the measured outcome for CCCc1cc(=O)[nH]c(=S)[nH]1 ?
OUTPUT: inactive

INPUT: Would you kindly share the measured outcome for CN1CCCC1=O ?
OUTPUT: inactive

INPUT: Would you kindly share the measured outcome for CCCCCCCC=O ?
OUTPUT: inactive

--- query ---
INPUT: Would you kindly share the measured outcome for C=CCOC(=O)c1ccccc1C(=O)OCC=C ?
OUTPUT: inactive

* * *

read-out: TIMP metallopeptidase inhibitor 1 (TIMP1), TIMP1 (gene 7076); assay: BSK_hDFCGF_TIMP1: BioMAP Diversity Plus: hDFCGF Assay for TIMP metallopeptidase inhibitor 1 (TIMP1) Biomarker Activity (AID 2283062); conditions: primary human foreskin fibroblasts; actives raise or lower the signal
Activity calls are given as the source filed them. How the source made its calls: active means hit-call score of the fitted dose curve at least 0.9, where 1 is the maximum; inactive means score below 0.9.
Please reply with one of these outcomes: active, inactive

INPUT: Called result for CCCCc1ccc2c(n1)[C@@H](c1ccc(OC)cc1C[C@H](C)C(=O)O)[C@H](C(=O)O)[C@H]2c1ccc2c(c1)OCO2
OUTPUT: inactive

INPUT: Called result for NCC1(Cc2noc(=O)[nH]2)CCCCC1
OUTPUT: inactive

INPUT: Called result for CNCc1cc(F)ccc1Oc1ccc(Cl)c(Cl)c1
OUTPUT: inactive

INPUT: Called result for CCCCCCCCCCCCCO
OUTPUT: active

INPUT: Called result for C[Si]1(C)O[Si](C)(C)O[Si](C)(C)O[Si](C)(C)O1
OUTPUT: inactive

INPUT: Called result for CC=Cc1ccc(O)c(OC)c1
OUTPUT: inactive

Next item in the queue.
INPUT: Called result for CCCCCC(=O)O
OUTPUT: inactive

* * *

assay: CCTE_Shafer_MEA_acute_cross_correlation_area: CCTE's Neural Acute Assay for Area of Cross Correlation, Shafer Lab (AID 2284024);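 also: rat primary cortical neuron networks on 48-well MEA at DIV 13 or 15 with 40 min exposure; area under pooled inter-electrode spike cross-correlation near zero lag as percent change from own baseline; curves fitted for loss of cross-correlation area so actives lower synchrony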
The source made the active and inactive calls. The calls were made as follows: active = hit-call score of the fitted dose curve at least 0.9, where 1 is the maximum; inactive = score below 0.9.
measuredAttribute: outcome

INPUT: Would you kindly share the measured outcome for CCOC(=O)C(C)(C)Oc1ccc(Cl)cc1 ?
OUTPUT: inactive

INPUT: Would you kindly share the measured outcome for CNCc1cc(F)ccc1Oc1ccc(Cl)c(Cl)c1 ?
OUTPUT: inactive

INPUT: Would you kindly share the measured outcome for Cc1ccc(C(C)C)c(O)c1 ?
OUTPUT: inactive

* * *

Experiment: BSK_3C_SRB: Viability Assessment in the BioMAP Diversity Plus: 3C Assay (AID 2283023);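 also: cells read 24 h after compound dosing; fitted both ways against DMSO so a hit may be signal rise or drop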
Conditions: primary human endothelial cells (HUVEC)
Description: BSK_3C is a cell-based, multiplexed-readout assay that uses umbilical vein endothelium, a human vascular primary cell, with measurements taken at 24 hours after chemical dosing in a 96-well plate.BSK_3C_SRB is an assay component measured in the BSK_3C assay. It measures 0.1% sulforhodamine related to cell death using Sulforhodamine staining technology.Data from the assay component BSK_3C_SRB was analyzed into 1 assay endpoint. […]
Calls of active or inactive are those of the source. The calls were made as follows: active = hit-call score of the fitted dose curve at least 0.9, where 1 is the maximum; inactive = score below 0.9.
Please reply with one of these outcomes: yes (1) = active, no (0) = inactive

Solved cases below.
INPUT: Called result for CCCCN(CCCC)CCCC
OUTPUT: no (0)

INPUT: Called result for COc1cc(C=O)ccc1O
OUTPUT: no (0)

INPUT: Called result for Cc1ccc2ncccc2c1
OUTPUT: no (0)

INPUT: Called result for Cc1c(C(=O)O)c(O)cc2c1C(=O)c1c(O)c([C@@H]3O[C@H](CO)[C@@H](O)[C@H](O)[C@H]3O)c(O)c(O)c1C2=O
OUTPUT: no (0)

INPUT: Called result for O=[N+]([O-])C(CO)(CO)CO
OUTPUT: no (0)

INPUT: Called result for CC1(C)CC(N=C=O)CC(C)(CN=C=O)C1 (centres undefined)
OUTPUT: no (0)

INPUT: Called result for O=C(N[C@@H](Cc1ccccc1)[C@@H](O)C(=O)N1C[C@@H](O)[C@@H](O)C1)c1cc2cc(Cl)ccc2[nH]1
OUTPUT: no (0)

INPUT: Called result for CCCCCCCCCCO
OUTPUT: no (0)

INPUT: Called result for CN1CCCC1=O
OUTPUT: no (0)

INPUT: Called result for O=c1c(O)c(-c2ccc(O)c(O)c2)oc2cc(O)cc(O)c12
OUTPUT: yes (1)

Others:
INPUT: Called result for CC(=O)Oc1ccccc1C(=O)O
OUTPUT: no (0)

INPUT: Called result for Cc1cccc([N+](=O)[O-])c1C
OUTPUT: no (0)

INPUT: Called result for CCOC(=O)CCC(=O)OCC
OUTPUT: no (0)

INPUT: Called result for CCCCCCCCCCCCCCCCCC(=O)O
OUTPUT: yes (1)

* * *

Read-out: matrix metalloproteinase-10 (MMP10), MMP10 (gene 4319)
Test: LTEA_HepaRG_MMP10: Life Technologies and Expression Analysis (LTEA) Assay for matrix metalloproteinase-10 (MMP10) using HepaRG (AID 2283517)
Conditions: mRNA level, 48 h; actives raise or lower the signal
Description: LTEA_HepaRG is a cell based, multiplexed-readout assay that uses HepaRG, a human liver cell line, with measurements taken at 48 hours after chemical dosing on a 96-well plate.LTEA_HepaRG_MMP10 is one of 102 assay component(s) measured in the LTEA HepaRG cell culture assay. It is a marker of Fibrosis.Data from the assay component LTEA_HepaRG_MMP10 was analyzed into 1 endpoint. […]
Calls of active or inactive are those of the source. How the source made its calls: active means hit-call score of the fitted dose curve at least 0.9, where 1 is the maximum; inactive means score below 0.9.
Please reply with one of these outcomes: active, inactive

INPUT: Called result for C=CCc1ccc(O)c(OC)c1
OUTPUT: inactive

INPUT: Called result for C1CCC(SSC2CCCCC2)CC1
OUTPUT: inactive

INPUT: Called result for CNC(=O)[C@H]1O[C@@H](n2cnc3c(NCc4cc(Cl)ccc4OCc4cc(C)no4)ncnc32)[C@H](O)[C@@H]1N
OUTPUT: inactive

Others:
INPUT: Called result for Cc1cccc([N+](=O)[O-])c1C
OUTPUT: inactive

INPUT: Called result for O=C(N[C@@H](Cc1ccccc1)[C@@H](O)C(=O)N1C[C@@H](O)[C@@H](O)C1)c1cc2cc(Cl)ccc2[nH]1
OUTPUT: inactive

INPUT: Called result for O=[N+]([O-])C(CO)(CO)CO
OUTPUT: inactive

INPUT: Called result for Oc1ccc2c(c1)OC[C@@H](N1CCC(O)(c3ccc(F)cc3)CC1)[C@H]2O
OUTPUT: inactive

INPUT: Called result for FC(F)(F)C(F)(F)C(F)(F)C(F)(F)C(F)(F)C(F)(F)CCI
OUTPUT: inactive

INPUT: Called result for CCNc1cccc(C)c1
OUTPUT: inactive

INPUT: Called result for O=C(OCCCCCOC(=O)c1ccccc1)c1ccccc1
OUTPUT: inactive

INPUT: Called result for Cc1nc(-c2ccc3c(c2)CCN(CCC2CCC(NC(=O)/C=C/c4ccc(F)cc4)CC2)CC3)no1 (stereo unspecified)
OUTPUT: inactive

* * *

assay: BSK_BE3C_SRB: Viability Assessment in the BioMAP Diversity Plus: BE3C Assay (AID 2283028); details: primary human bronchial epithelial cells
Calls of active or inactive are those of the source. Rule for the calls: active = hit-call score of the fitted dose curve at least 0.9, where 1 is the maximum; inactive = score below 0.9.
Please reply with one of these outcomes: active, inactive

Solved cases below.
INPUT: Called result for O=c1c(O)c(-c2ccc(O)c(O)c2)oc2cc(O)cc(O)c12
OUTPUT: inactive

INPUT: Called result for CCOC(=O)C(C)(C)Oc1ccc(Cl)cc1
OUTPUT: inactive

INPUT: Called result for NS(=O)(=O)c1cc2c(cc1Cl)NCNS2(=O)=O
OUTPUT: inactive

INPUT: Called result for Cc1cccc(C)c1O
OUTPUT: inactive

Next item in the queue.
INPUT: Called result for Cc1ccc(C)c(O)c1C
OUTPUT: inactive

* * *

experiment: Tanguay_ZF_120hpf_PE_legacy: (Legacy) Oregon State University Tanguay Lab 120 Hour Post-fertilization zebrafish Assay for Pericardial Edema (AID 2283640)
Results filed as inconclusive are left out. The source made the active and inactive calls. The calls were made as follows: active = hit-call score of the fitted dose curve at least 0.9, where 1 is the maximum; inconclusive = response in the unintended direction; inactive = score below 0.9.
Please reply with one of these outcomes: YES = active, NO = inactive

Solved cases below.
INPUT: Called result for COc1cc(C=O)ccc1O
OUTPUT: YES

INPUT: Called result for CCCCCCCCCCC
OUTPUT: NO

INPUT: Called result for NCCO
OUTPUT: NO

INPUT: Called result for O=C(O)Cc1ccccc1Nc1c(Cl)cccc1Cl
OUTPUT: NO

INPUT: Called result for CCCCC(CC)COC(=O)CC(C(=O)OCC(CC)CCCC)S(=O)(=O)O (stereo not drawn)
OUTPUT: NO

INPUT: Called result for Oc1ccc2c(c1)OC[C@@H](N1CCC(O)(c3ccc(F)cc3)CC1)[C@H]2O
OUTPUT: NO

INPUT: Called result for C1CCC(SSC2CCCCC2)CC1
OUTPUT: NO

Next item in the queue.
INPUT: Called result for CCCCCCC(=O)OCC
OUTPUT: NO
